Test system: HOP-92 NSCLC
Assay: NCI tumour cell line growth inhibition, 48 h; in the data active = GI50 below about 0.43 µM; inactive = the rest
Respond with a class label; see 1 for active, 0 for inactive

| molecule | group_label |
| --- | --- |
| CC/C(=C\c1ccc(N(C)C)cc1)c1ccncc1 | 0 |
| COc1ccc2c(c1)OCC1c3cc(OC)ccc3OC21 (stereo not drawn) | 0 |
| Cc1n[nH]c(C)c1-c1c(C)n[nH]c1C | 0 |
| O=c1c2cc(F)ccc2sc2c(NCCCNCCO)nc3ccc(F)cc3c12 | 0 |
| NC1=Nc2cc(OCCCCN3Cc4ccccc4C3)c(OCC3CC3)cc2C12CCCC2 | 0 |

Request: Test call for this molecule, please: CC1(C)CC[C@]2(C(=O)O)CC[C@]3(C)C(=CC[C@@H]4[C@@]5(C)C/C(=C/c6cccnc6)[C@H](O)C(C)(C)[C@@H]5CC[C@]43C)[C@@H]2C1
Response: 0

Request: Try N=C(N)c1ccc(-c2ccc(-c3cccs3)s2)cc1F next.
Response: 0

Request: # iterate: CCN(CC)CCCC(C)Nc1ccnc2cc(OC)ccc12 (stereo not drawn)
Response: 0

Request: How about CCCN1CCCC(c2ccc(Nc3nc(Nc4cc(F)ccc4C(N)=O)c4cc[nH]c4n3)c(OC)c2)C1 (stereo not drawn) ?
Response: 1

* * *

TGI overview
Test system: OVCAR-5 ovarian
Assay: NCI tumour cell line growth inhibition, 48 h
Please respond with the number in µM and leave the unit unwritten.

| compound | measured_parameter | measured |
| --- | --- | --- |
| CN1CN(c2ccccc2)C2(CCN(CCCN(C)c3ccc(F)cc3)CC2)C1=O | TGI | 41.8 |
| Nc1nc(NCc2ccccc2)cc(NCc2ccccc2)n1 | TGI | 50.4 |
| CCN(CC)CCN1C(=O)c2cccc3cc(N)cc(c23)C1=O | TGI | 15.7 |

Request: Sample OC1(c2ccccc2)c2ccccc2N(c2ccccc2)c2ccc(Cl)cc21 (configuration not stated) — what was its TGI?
Response: 1.28

Request: Moving on to CS(=O)(=O)Sc1ccc(Cl)cc1
Response: 31.5

Request: Note, next up: CCCN1CCCC(c2ccc(Nc3nc(Nc4cc(F)ccc4C(N)=O)c4cc[nH]c4n3)c(OC)c2)C1 (configuration not stated)
Response: 5.36

Request: One more compound: CS(=O)c1cc(=O)c2ccccc2s1 (configuration not stated)
Response: 18.2

Request: Further, for O=C(/C=C/c1c[nH]c2ccccc12)c1ccccc1O ?
Response: 28.8

Request: Now the same for N#CSc1c[nH]c2cccc(/C=C/C(=O)/C=C(O)/C=C/c3cccc4[nH]cc(SC#N)c34)c12
Response: 2.04

* * *

Test system: TK-10 renal
Test: NCI tumour cell line growth inhibition, 48 h
List of TGI values.

Examples with their reported TGI follow.
| molecule | assay_system | TGI |
| --- | --- | --- |
| COc1ccc(C2OC2C(=O)C23CC4CC(CC(C4)C2)C3)cc1 (stereo not given) | TK-10 renal | > 100 µM |
| COc1ccc(Cc2nc3cc(C(F)(F)F)ccc3n2C[C@@H]2CCCN3CCCCC23)cc1 (stereo not given in full) | TK-10 renal | 24.2 µM |
| O=C(N=Nc1c(O)[nH]c2c(Cl)cc(Cl)cc12)C(=O)Nc1cccc(C(F)(F)F)c1 | TK-10 renal | > 100 µM |

We now examine a further molecule.
Request: Record lookup: for TK-10 renal, what TGI belongs to COc1ccc2c(c1)SC1=Nc3sc4cc(OC)ccc4[n+]3CN12 ?
Response: > 100 µM
